target: NRAS Q61K (Homo sapiens (Human), UniProt P01111+P62937, Q61K); experiment: Ras-Raf (BRAF RBD) disruption / FRET / MOA assay, NRAS Q61K; type: biochemical; conditions: NRAS Q61K; Ras-Raf disruption/FRET/MOA assay; read-out: IC50* NRAS Q61K FRET data
Sequence (P01111 whole entry Q61K, one chain of several): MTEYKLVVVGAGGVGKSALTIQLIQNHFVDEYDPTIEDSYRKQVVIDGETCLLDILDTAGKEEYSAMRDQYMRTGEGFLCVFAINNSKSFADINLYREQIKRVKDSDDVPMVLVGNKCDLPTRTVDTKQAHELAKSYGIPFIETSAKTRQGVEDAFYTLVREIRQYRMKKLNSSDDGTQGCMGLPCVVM
pIC50: −log10 of the molar value.

>  <MOLECULE>
C=CC(=O)N1CCO[C@H]2CN(C(=O)N(C)[C@H](C(=O)N[C@H]3Cc4cccc(n4)-c4ccc5c(c4)c(c(-c4cccnc4[C@H](C)OC)n5CC(F)(F)F)CC(C)(C)COC(=O)[C@@H]4CCCN(N4)C3=O)C(C)C)C[C@H]21 (atropisomer, axis not shown) [Example A595]

>  <pIC50>
6.00 to 7.00

$$$$
>  <MOLECULE>
C=CC(=O)N1CC[C@]2(COCCN2C(=O)N(C)[C@H](C(=O)N[C@H]2Cc3nc(cs3)-c3ccc4c(c3)c(c(-c3cccnc3[C@H](C)OC)n4CC)CC(C)(C)COC(=O)[C@@H]3CCCN(N3)C2=O)C(C)C)C1 (atropisomer, axis not shown) [Example A676]

>  <pIC50>
6.00 to 7.00

$$$$

* * *

target: NRAS G12C (Homo sapiens (Human), UniProt P01111+P62937, G12C); test: Ras-Raf (BRAF RBD) disruption / FRET / MOA assay, NRAS G12C; type: biochemical; conditions: read-out: IC50* NRAS G12C FRET data
Sequence (P01111 whole entry G12C): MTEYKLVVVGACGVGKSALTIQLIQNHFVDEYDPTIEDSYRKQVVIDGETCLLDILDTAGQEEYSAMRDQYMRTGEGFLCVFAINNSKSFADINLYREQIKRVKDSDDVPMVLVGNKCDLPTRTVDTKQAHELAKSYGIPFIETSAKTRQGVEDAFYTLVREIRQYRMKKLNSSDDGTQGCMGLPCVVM
Sequence (P62937 whole entry): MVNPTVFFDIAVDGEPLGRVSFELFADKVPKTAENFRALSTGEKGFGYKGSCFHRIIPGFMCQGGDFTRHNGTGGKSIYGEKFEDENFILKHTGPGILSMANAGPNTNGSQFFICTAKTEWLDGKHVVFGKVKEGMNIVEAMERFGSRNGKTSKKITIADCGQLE

>  <COMPOUND>
CCn1c(-c2cccnc2[C@H](C)OC)c2c3cc(ccc31)-c1csc(n1)C[C@H](NC(=O)[C@H](C(C)C)N(C)C(=O)N(C)C1CN(C(=O)/C=C/[C@@H]3CCCN3C)C1)C(=O)N1CCC[C@H](N1)C(=O)OCC(C)(C)C2 (atropisomer, axis not shown)

>  <IC50>
10 to 100 nM

$$$$
>  <COMPOUND>
C=CC(=O)N1CCC2(CC1)CCN(C(=O)N(C)[C@H](C(=O)N[C@H]1Cc3nc(cs3)-c3ccc4c(c3)c(c(-c3cccnc3[C@H](C)OC)n4CC)CC(C)(C)COC(=O)[C@@H]3CCCN(N3)C1=O)C(C)C)CC2 (atropisomer, axis not shown)

>  <IC50>
10 to 100 nM

$$$$

* * *

biological target: KRAS G13D (Homo sapiens (Human), UniProt P01116+P62937, G13D); assay: Ras-Raf (BRAF RBD) disruption / FRET / MOA assay, KRAS G13D; assay type: biochemical; conditions: read-out: IC50* KRAS G13D FRET data
Sequence (P01116-2 other isoform, or with tags, fused parts or gaps G13D): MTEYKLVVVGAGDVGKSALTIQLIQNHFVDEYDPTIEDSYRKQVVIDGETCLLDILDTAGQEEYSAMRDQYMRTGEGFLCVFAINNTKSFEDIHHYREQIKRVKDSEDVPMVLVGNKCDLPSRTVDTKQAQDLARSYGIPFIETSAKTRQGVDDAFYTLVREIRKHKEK
Sequence (P62937 whole entry): as the sequence (P62937 whole entry) above
pIC50: −log10 of the molar value.
pIC50 for assorted compounds
MEASUREMENT_TYPE: pIC50

>  <COMPOUND>
C=CC(=O)N(C)[C@H]1CN(C(=O)N(C)[C@H](C(=O)N[C@H]2Cc3nc(cs3)-c3ccc4c(c3)c(c(-c3cccnc3[C@H](C)OC)n4CC)CC(C)(C)COC(=O)[C@@H]3CCCN(N3)C2=O)C(C)C)C[C@@H]1F (atropisomer, axis not shown)

>  <MEASUREMENT_TYPE>
pIC50

>  <VALUE_MEASURED>
5.00 to 6.00

$$$$
>  <COMPOUND>
CCn1c(-c2cccnc2[C@H](C)OC)c2c3cc(ccc31)-c1cccc(c1)C[C@H](NC(=O)C(COC1CN(C(=O)C#CC(C)(C)N(C)C)C1)C(C)C)C(=O)N1CCC[C@H](N1)C(=O)OCC(C)(C)C2 (some centres unmarked)

>  <MEASUREMENT_TYPE>
pIC50

>  <VALUE_MEASURED>
< 5.00

$$$$
>  <COMPOUND>
C=CC(=O)N1CC[C@H](C(=O)N(C)[C@H](C(=O)N[C@H]2Cc3cc(CF)cc(c3)-c3ccc4c(c3)c(c(-c3cccnc3[C@H](C)OC)n4CC)CC(C)(C)COC(=O)[C@@H]3CCCN(N3)C2=O)C(C)C)C1 (atropisomer, axis not shown)

>  <MEASUREMENT_TYPE>
pIC50

>  <VALUE_MEASURED>
5.00 to 6.00

$$$$
>  <COMPOUND>
CCn1c(-c2cccnc2[C@H](C)OC)c2c3cc(ccc31)-c1cc(O)cc(c1)C[C@H](NC(=O)[C@H](C(C)C)N(C)C(=O)C1CN(C(=O)/C=C/CN(C)C)C1)C(=O)N1CCC[C@H](N1)C(=O)OCC(C)(C)C2 (atropisomer, axis not shown)

>  <MEASUREMENT_TYPE>
pIC50

>  <VALUE_MEASURED>
6.00 to 7.00

$$$$
>  <COMPOUND>
CCn1c(-c2cccnc2[C@H](C)OC)c2c3cc(ccc31)-c1csc(n1)C[C@H](NC(=O)[C@H](C(C)C)N(C)C(=O)N(C)C1CN(C(=O)/C=C/[C@H]3CCCN3C)C1)C(=O)N1CCC[C@H](N1)C(=O)OCC(C)(C)C2 (atropisomer, axis not shown)

>  <MEASUREMENT_TYPE>
pIC50

>  <VALUE_MEASURED>
6.00 to 7.00

$$$$
>  <COMPOUND>
C=CC(=O)N1CCC2(CCN(C(=O)N(C)[C@H](C(=O)N[C@H]3Cc4cccc(c4)-c4ccc5c(c4)c(c(-c4cccnc4[C@H](C)OC)n5CC)CC(C)(C)COC(=O)[C@@H]4CCCN(N4)C3=O)C(C)C)CC2)C1 (atropisomer, axis not shown)

>  <MEASUREMENT_TYPE>
pIC50

>  <VALUE_MEASURED>
5.00 to 6.00

$$$$
>  <COMPOUND>
CCn1c(-c2cccnc2COC)c2c3cc(ccc31)-c1cc(O)cc(c1)C[C@H](NC(=O)[C@H](C(C)C)N(C)C(=O)[C@@H]1CCN(C(=O)C#CC(C)(C)N(C)C)C1)C(=O)N1CCC[C@H](N1)C(=O)OCC(C)(C)C2

>  <MEASUREMENT_TYPE>
pIC50

>  <VALUE_MEASURED>
5.00 to 6.00

$$$$
>  <COMPOUND>
CCn1c(-c2cccnc2[C@H](C)OC)c2c3cc(ccc31)-c1csc(n1)C[C@H](NC(=O)[C@H](C(C)C)N(C)C(=O)N1CCC3(CC1)CN(C(=O)/C=C/CN(C)C)C3)C(=O)N1CCC[C@H](N1)C(=O)OCC(C)(C)C2 (atropisomer, axis not shown)

>  <MEASUREMENT_TYPE>
pIC50

>  <VALUE_MEASURED>
6.00 to 7.00

$$$$

* * *

biological target: KRAS G12D (Homo sapiens (Human), UniProt P01116+P62937, G12D); assay: Ras-Raf (BRAF RBD) disruption / FRET / MOA assay, KRAS G12D; assay type: biochemical; conditions: Ras-Raf disruption/FRET/MOA assay; class symbols; read-out: KRAS G12D FRET data IC50
Sequence (P01116-2 other isoform, or with tags, fused parts or gaps G12D, one chain of several): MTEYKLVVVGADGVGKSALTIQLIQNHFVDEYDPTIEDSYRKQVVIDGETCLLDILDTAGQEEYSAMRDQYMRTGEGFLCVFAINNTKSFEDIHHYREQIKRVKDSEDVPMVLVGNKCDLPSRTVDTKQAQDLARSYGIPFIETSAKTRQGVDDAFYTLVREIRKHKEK
IC50 for assorted compounds
MEASUREMENT_TYPE: IC50

>  <COMPOUND>
C/C=C(\C)S(=O)(=O)N1CC[C@H](C(=O)N(C)[C@H](C(=O)N[C@H]2Cc3cccc(c3)-c3ccc4c(c3)c(c(-c3cccnc3[C@H](C)OC)n4CC)CC(C)(C)COC(=O)[C@@H]3CCCN(N3)C2=O)C(C)C)C1 (atropisomer, axis not shown) [Example A308]

>  <TARGET_ENTITY>
KRAS G12D (Homo sapiens (Human), UniProt P01116+P62937, G12D)

>  <VALUE_MEASURED>
> 10000 nM

$$$$
>  <COMPOUND>
C=CC(=O)N1CC[C@H](C(=O)N(C)[C@H](C(=O)N[C@H]2Cc3cccc(c3)-c3ccc4c(c3)c(c(-c3cccnc3[C@H](C)OC)n4CC)CC(C)(C)COC(=O)[C@@H]3CCCN(N3)C2=O)[C@@H](C)C(F)(F)F)C1 (atropisomer, axis not shown) [Example A640]

>  <TARGET_ENTITY>
KRAS G12D (Homo sapiens (Human), UniProt P01116+P62937, G12D)

>  <VALUE_MEASURED>
1000 to 10000 nM

$$$$
>  <COMPOUND>
C=CC(=O)N1CCC(C(=O)N(C)[C@H](C(=O)N[C@H]2Cc3cc(O)cc(c3)-c3ccc4c(c3)c(c(-c3cccnc3[C@H](C)OC)n4CC)CC(C)(C)COC(=O)[C@@H]3CCCN(N3)C2=O)C(C)C)CC1 (atropisomer, axis not shown) [Example A260]

>  <TARGET_ENTITY>
KRAS G12D (Homo sapiens (Human), UniProt P01116+P62937, G12D)

>  <VALUE_MEASURED>
100 to 1000 nM

$$$$
>  <COMPOUND>
C=CC(=O)N1CCOC2(CCN(C(=O)N(C)[C@H](C(=O)N[C@H]3Cc4cccc(n4)-c4ccc5c(c4)c(c(-c4cccnc4[C@H](C)OC)n5CC(F)(F)F)CC(C)(C)COC(=O)[C@@H]4CCCN(N4)C3=O)C(C)C)CC2)C1 (atropisomer, axis not shown) [Example A607]

>  <TARGET_ENTITY>
KRAS G12D (Homo sapiens (Human), UniProt P01116+P62937, G12D)

>  <VALUE_MEASURED>
1000 to 10000 nM

$$$$
